Assay System: Cannabinoid receptor 2 (Homo sapiens, UniProt P34972)
Sequence (P34972 whole entry): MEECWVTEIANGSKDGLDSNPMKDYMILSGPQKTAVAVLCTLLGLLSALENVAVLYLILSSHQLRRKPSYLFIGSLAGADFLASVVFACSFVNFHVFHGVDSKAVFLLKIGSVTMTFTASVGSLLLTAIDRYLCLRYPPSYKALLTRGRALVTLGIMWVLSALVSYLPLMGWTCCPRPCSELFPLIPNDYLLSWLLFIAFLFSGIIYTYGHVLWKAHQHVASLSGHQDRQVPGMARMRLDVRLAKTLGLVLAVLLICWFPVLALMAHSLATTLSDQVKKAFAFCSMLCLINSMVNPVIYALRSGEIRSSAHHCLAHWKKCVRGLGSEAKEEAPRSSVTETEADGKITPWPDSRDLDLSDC
Test Description: Displacement of [3H]CP-55940 from human recombinant cannabinoid CB2 receptor expressed in HEK293 cells at 10 uM
Format: cell-based
Listed below: Activity values for each entry.
Reply numerically in %, unit not repeated.

Answered cases to consult:
{"Structure Smiles": "COc1cc(Br)cc2cc(C)c(=O)oc12", "Assay System": "Cannabinoid receptor 2 (Homo sapiens, UniProt P34972)", "Activity, %": 9}
{"Structure Smiles": "COc1cccc2cc(C)c(=O)oc12", "Assay System": "Cannabinoid receptor 2 (Homo sapiens, UniProt P34972)", "Activity, %": 4}

*Q* What value of Activity on Cannabinoid receptor 2 (Homo sapiens, UniProt P34972) does Cc1cc2cc(Cl)cc(Br)c2oc1=O have?
*A* 3

*Q* Same question for Cc1cc2c(ccc3ccccc32)oc1=O please.
*A* 2

*Q* Then this molecule: CCOC(=O)/C(=C/C=C/c1ccccc1)C(=O)Oc1c(C2SCCS2)ccc2c1C=CC(C)(C)O2
*A* 22

###

Measured Ki, listed per entry.
Assay System: Cannabinoid receptor 2 (Homo sapiens)
Test Description: Displacement of [3H]CP-55940 from human recombinant cannabinoid CB2 receptor expressed in HEK293 cells

{"Structure Smiles": "O=c1oc2ccc([N+](=O)[O-])cc2cc1Cc1ccccc1", "Assay System": "Cannabinoid receptor 2 (Homo sapiens)", "Ki": "> 10 µM"}
{"Structure Smiles": "COc1ccc2oc(=O)c(C)cc2c1", "Assay System": "Cannabinoid receptor 2 (Homo sapiens)", "Ki": "≥ 10 µM"}
{"Structure Smiles": "COc1ccc(Br)c2oc(=O)c(Cc3ccccc3)cc12", "Assay System": "Cannabinoid receptor 2 (Homo sapiens)", "Ki": "> 10 µM"}

*Q* Fill in the blank: the reported Ki of Cc1cc2cc(I)ccc2oc1=O is ____.
*A* > 10 µM

*Q* Would you mind doing COc1ccc2cc(Cc3ccccc3)c(=O)oc2c1 as well?
*A* > 10 µM

*Q* Proceed to O=c1oc2ccccc2cc1Cc1ccccc1
*A* > 10 µM

###

Catalogue of Activity readings, one per entry.
Assay System: Cannabinoid receptor 2 (Homo sapiens, UniProt P34972)
Test Description: Displacement of [3H]CP-55940 from human recombinant cannabinoid CB2 receptor expressed in HEK293 cells at 10 uM
Format: cell-based

Completed entries (count: 8):
{"Structure Smiles": "O=c1oc2ccc([N+](=O)[O-])cc2cc1Cc1ccccc1", "Activity": "15%"}
{"Structure Smiles": "O=c1oc2ccc(I)cc2cc1Cc1ccccc1", "Activity": "44%"}
{"Structure Smiles": "COc1ccc2cc(C)c(=O)oc2c1", "Activity": "2%"}
{"Structure Smiles": "COc1ccc2oc(=O)c(C)cc2c1", "Activity": "7%"}
{"Structure Smiles": "Cc1cc2cc(I)ccc2oc1=O", "Activity": "10%"}
{"Structure Smiles": "Cc1cc2c(C(C)C)ccc(C)c2oc1=O", "Activity": "0%"}
{"Structure Smiles": "COc1ccc2cc(Cc3ccccc3)c(=O)oc2c1", "Activity": "33%"}
{"Structure Smiles": "COc1ccc2oc(=O)c(Cc3ccccc3)cc2c1", "Activity": "37%"}

*Q* # input compound: COc1cc(C)cc2oc(=O)c(Cc3ccccc3)cc12 ; wanted: its Activity
*A* 45%
